Let's look at some molecules and their measured Potency.
Experiment: Primary qHTS for inhibitors of nuclear receptor binding SET domain protein 2 (NSD2) in an isogenic RCH-ACV NSD2 p.E1099K mutant (9B) (AID 1645876); also: potency is read from the fitted curve at half-maximal effect; nearly all actives have a fitted effect of over 70% in size
Settings: RCH-ACV NSD2 E1099K (9B) viability, CellTiter-Glo, 72 h; series mostly up to 44.9 µM
Inconclusive results are not listed. Active and inactive are the calls of the source. Calls follow the shape of the dose curve; as a rule, active = well fitted inhibition curve with a large enough effect; inconclusive = small, poorly fitted or top-dose-only effect; inactive = flat fitted curve, though single readings scatter.
Value kind: Potency

[
  {
    "Molecule": "C=C1C(=O)OC2/C=C(\\C)CC3C=C(CC/C=C(\\C)CCC12)C(=O)O3 (stereo not given)",
    "Value kind": "Potency",
    "Result": "12.7 µM (active)"
  },
  {
    "Molecule": "CC(C)(C)C1CCN(C(=O)n2ncc(C(O)(c3ccccc3)c3ccccc3)n2)CC1",
    "Value kind": "Potency",
    "Result": "20.5 µM (active)"
  },
  {
    "Molecule": "Cc1cc2c(F)c(Oc3ncnn4cc(OCC(C)OC(=O)C(C)N)c(C)c34)ccc2[nH]1 (stereo not given)",
    "Value kind": "Potency",
    "Result": "9.34 µM (active)"
  },
  {
    "Molecule": "C=C1C(=O)O[C@@H]2C[C@H](C)[C@@H]3CC(=O)C(C)=C3C[C@H]12",
    "Value kind": "Potency",
    "Result": "4.59 µM (active)"
  },
  {
    "Molecule": "O=C(Nc1ccc(-n2nc(C(F)(F)F)cc2C(F)(F)F)cc1)c1ccncc1F",
    "Value kind": "Potency",
    "Result": "20.5 µM (active)"
  }
]

----------
Assay: P-glycoprotein substrates identified in KB-3-1 adenocarcinoma cell line, qHTS therapeutic library screen (AID 1346986); also: nearly all actives have a fitted effect of over 60% in size;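 also: potency is read from the fitted curve at half-maximal effect; potency is for cytotoxicity meaning loss of cell viability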
Details: KB-3-1 parental cells viability, CellTiter-Glo, 72 h; series mostly up to 44.5 µM
Results filed as inconclusive are left out. The source made the active and inactive calls. The call rests on the fitted dose curve; in most records, active means well fitted inhibition curve with a large enough effect; inconclusive means small, poorly fitted or top-dose-only effect; inactive means no such curve, though single readings can be large or run the other way.
Value kind: Potency

[
  {
    "Compound": "COc1cc(F)c(C(C)C)cc1-c1ccc(C(F)(F)F)cc1CN1C(=O)OC(c2cc(C(F)(F)F)cc(C(F)(F)F)c2)C1C (centres undefined)",
    "Result": "inactive"
  },
  {
    "Compound": "CN1c2c(nc(N)[nH]c2=O)NC[C@@H]1CNc1ccc(C(=O)N[C@@H](CCC(=O)O)C(=O)O)cc1",
    "Result": "inactive"
  },
  {
    "Compound": "C=CC(=O)Nc1cccc(Nc2nc(Nc3ccc(OCCOC)cc3)ncc2F)c1",
    "Result": "11.6 µM (active)"
  },
  {
    "Compound": "CC(=O)OCC(=O)[C@@]12O[C@@H]1C[C@H]1[C@@H]3CC=C4C[C@@H](O)CC[C@]4(C)[C@H]3CC[C@@]12C",
    "Result": "inactive"
  }
]

----------
System: NIH3T3
Assay: Cytotoxic Profiling of Annotated Libraries Using Quantitative High-Throughput Screening (AID 1296008); also: % is scaled to controls: 0 for no effect and ±100 for the full control effect; nearly all actives have a fitted effect of over 60% in size
Details: Five cell lines viability, CellTiter-Glo ATP luminescence, 48-72 h; active compounds read low
Inconclusive results are not listed. Calls of active or inactive are those of the source. Calls follow the shape of the dose curve; as a rule, active = well fitted inhibition curve with a large enough effect; inconclusive = small, poorly fitted or top-dose-only effect; inactive = flat fitted curve, though single readings scatter.

[
  {
    "Molecule": "c1cc(-c2cnn3cc(-c4ccc(N5CCNCC5)cc4)cnc23)c2cccnc2c1",
    "max response": "-2.87% (inactive)"
  },
  {
    "Molecule": "C=C(C)C1CCC2(C(=O)O)CCC3(C)C(CCC4C5(C)C(C=O)C(O)C(C)(C)C5CCC43C)C12 (stereo not given)",
    "max response": "0.383% (inactive)"
  },
  {
    "Molecule": "CC1=C(c2ccc(NC(=O)c3c(F)cccc3F)cc2)CN(c2nccs2)CC1",
    "max response": "-1.55% (inactive)"
  },
  {
    "Molecule": "COc1ccc(CCc2nc3cc(-c4c(C)noc4C)ccc3n2CC(C)N2CCOCC2)cc1Cl (stereo not given)",
    "max response": "-17.1% (inactive)"
  },
  {
    "Molecule": "CC/C(C)=C/C(=O)OC1C(OC2(C)CCC3C(C4C(C)CCC42)C3(C)C)OC(C)C(O)C1O (stereo not given)",
    "max response": "-0.0823% (inactive)"
  }
]

----------
Test: Primary qHTS for inhibitors of nuclear receptor binding SET domain protein 2 (NSD2) in an RCH-ACV wild type WT cells (2C) (AID 1645877); also: nearly all actives have a fitted effect of over 70% in size
Conditions: RCH-ACV (leukaemia line) NSD2 WT (2C) viability, CellTiter-Glo, 72 h; series mostly up to 44.9 µM
Excerpt: Assay Provider: Jonathan D. Licht, MD University of Florida College of Medicine, Gainesville, FL Mutations in epigenetic regulators are common in relapsed pediatric acute lymphoblastic leukemia (ALL). Here, we uncovered the mechanism underlying the relapse of ALL driven by an activating mutation of the NSD2 histone methyltransferase (p.E1099K). […] Correction of this mutation restored glucocorticoid sensitivity. […]
Records with an inconclusive call do not appear. Activity calls are given as the source filed them. The call rests on the fitted dose curve; in most records, active means well fitted inhibition curve with a large enough effect; inconclusive means small, poorly fitted or top-dose-only effect; inactive means no such curve, though single readings can be large or run the other way.
Possible outcomes: active, inactive

[
  {
    "Compound": "COc1ccc(NC(=O)C2C[C@H](C)CC[C@H]2C(C)C)cc1 (stereo not given in full)",
    "Cat": "inactive"
  },
  {
    "Compound": "C=C1C(=O)O[C@H]2C1CCC(C)=C1C(=O)C=C(C)[C@@]12O (stereo not given in full)",
    "Cat": "active"
  },
  {
    "Compound": "COc1cc(CCc2cc(NC(=O)c3ccc(N4CC(C)NC(C)C4)cc3)n[nH]2)cc(OC)c1 (stereo not given)",
    "Cat": "active"
  },
  {
    "Compound": "CO[C@H]1O[C@@H]2O[C@@]3(C)CCC4[C@H](C)CCC([C@H]1C)[C@]42OO3 (stereo not given in full)",
    "Cat": "active"
  },
  {
    "Compound": "O=S(=O)(NCc1ccccn1)c1ccc(Br)c2ccccc12",
    "Cat": "inactive"
  },
  {
    "Compound": "CC(=O)O[C@H]1CC(C)(C)CC2[C@]13CO[C@@]21CCC2[C@@]4(C)CC[C@H](O[C@@H]5OC[C@H](O[C@@H]6O[C@H](CO)[C@@H](O)[C@H](O)[C@H]6O[C@@H]6OC[C@@H](O[C@@H]7O[C@H](CO)[C@@H](O)[C@H](O)[C@H]7O)[C@H](O)[C@H]6O)[C@H](O)[C@H]5O[C@@H]5O[C@H](CO)[C@@H](O)[C@H](O)[C@H]5O)[C@@](C)(CO)C4CC[C@@]2(C)[C@]1(C)C[C@H]3O (stereo not given in full)",
    "Cat": "active"
  },
  {
    "Compound": "COc1cc(Br)c(S(=O)(=O)Nc2ccc(Cl)c(O[C@@H]3CCN(C)C3)c2)cc1OC",
    "Cat": "active"
  },
  {
    "Compound": "CC(C)C[C@@H](N)C(=O)N[C@H]1C(=O)N[C@@H](CC(N)=O)C(=O)N[C@H]2C(=O)N[C@H]3C(=O)N[C@H](C(=O)N[C@H](C(=O)O)c4cc(O)cc(O)c4-c4cc3ccc4O)[C@H](O)c3ccc(c(Cl)c3)Oc3cc2cc(c3O[C@@H]2O[C@H](CO)[C@@H](O)[C@H](O)[C@H]2O[C@H]2C[C@](C)(N)[C@H](O)[C@H](C)O2)Oc2ccc(cc2Cl)[C@H]1O",
    "Cat": "inactive"
  },
  {
    "Compound": "C=C1C(=O)O[C@@H]2[C@H]1CCC(C)=C(CCC(=O)O)[C@@]2(C)O",
    "Cat": "active"
  },
  {
    "Compound": "COc1cc2c(cc1-c1c(C)noc1C)ncc1[nH]c(=O)n(C(C)c3ccccn3)c12 (stereo not given)",
    "Cat": "active"
  },
  {
    "Compound": "CC(C)C(C)C(O)C1CC23CC(=O)C4(O)C(=C2CCC3C1C)C=CC1(O)CC(O)CCC14C (stereo not given)",
    "Cat": "inactive"
  },
  {
    "Compound": "Cc1ccccc1CN1CCn2c1nc1c(c2=O)CN(Cc2ccccc2)CC1",
    "Cat": "inactive"
  },
  {
    "Compound": "CC(C)(C)[C@H](NC(=O)c1ccc(N)c(Cl)c1)C(=O)N1CCC[C@H]1C(=O)N[C@H](C#N)CC(=O)O",
    "Cat": "inactive"
  },
  {
    "Compound": "C[C@@H]1CC[C@]2(C(=O)O)CC[C@]3(C)C(=CCC4[C@@]5(C)CC[C@H](O)[C@](C)(C(=O)O)C5CC[C@]43C)C2[C@]1(C)O (stereo not given in full)",
    "Cat": "inactive"
  },
  {
    "Compound": "CCCSc1nc(N[C@@H]2C[C@H]2c2ccc(F)c(F)c2)c2nnn([C@@H]3C[C@H](OCCO)[C@@H](O)[C@H]3O)c2n1",
    "Cat": "active"
  },
  {
    "Compound": "COc1ccc(CNc2nc(N(CCO)CCO)nc3c2ncn3C(C)C)cc1",
    "Cat": "active"
  },
  {
    "Compound": "C=C(C)C(=O)OC1CC(CO)CCC/C(CO)=C/C2OC(=O)C(=C)C21 (stereo not given)",
    "Cat": "active"
  },
  {
    "Compound": "CCC(C)C(=O)Oc1cc(C)ccc1C1(COC(=O)C(C)C)CO1 (stereo not given)",
    "Cat": "active"
  },
  {
    "Compound": "C[C@H]1CC[C@@]2(OC1)O[C@H]1CC3[C@@H]4CC[C@@H]5C[C@@H](O[C@@H]6O[C@H](CO)[C@@H](O[C@@H]7O[C@H](CO[C@@H]8OC[C@@H](O)[C@H](O)[C@H]8O)[C@@H](O[C@@H]8O[C@H](CO)[C@H](O)[C@H](O)[C@H]8O)[C@H](O)[C@H]7O)[C@H](O)[C@H]6O)CC[C@]5(C)C4CC[C@]3(C)[C@H]1[C@@H]2C (stereo not given in full)",
    "Cat": "active"
  },
  {
    "Compound": "C=CC(=O)Nc1ccc(CN2C(=O)N(c3cc(OC)cc(OC)c3)Cc3cnc(Nc4ccc(N5CCN(C)CC5)cc4)nc32)cc1",
    "Cat": "active"
  },
  {
    "Compound": "Cc1ccc(C(C)C)c(O[C@@H]2O[C@H](CO)[C@@H](O)[C@H](O)[C@H]2O)c1",
    "Cat": "inactive"
  },
  {
    "Compound": "O=C(Nc1nnc(-c2ccc3c(c2)OCCO3)o1)C1CCCCC1",
    "Cat": "inactive"
  },
  {
    "Compound": "C=C1C(=O)OC[C@@H]1C/C=C(\\C)CC1CC(C)C(=O)O1 (stereo not given in full)",
    "Cat": "active"
  },
  {
    "Compound": "O=C([C@@H]1CCCN(c2ccc3[nH]c(C4(n5cc(Cl)cn5)CC4)nc3n2)C1)N1CCCC1",
    "Cat": "inactive"
  },
  {
    "Compound": "COc1ccc(N2CCN(C(=O)c3cc4c(s3)-c3ccccc3S(=O)(=O)C4)CC2)cc1",
    "Cat": "inactive"
  },
  {
    "Compound": "C/C(=C/CO)CCC1C(C)CCC2C(C)(C)CCCC12C (stereo not given)",
    "Cat": "inactive"
  },
  {
    "Compound": "CC(C)=CCc1cc2c(cc1O)OC[C@H]1c3ccc(O)cc3O[C@@H]21",
    "Cat": "active"
  },
  {
    "Compound": "N[C@@H]1c2cccnc2[C@H](OC(=O)N2CCC(n3c(=O)[nH]c4ncccc43)CC2)CC[C@H]1c1cccc(F)c1F",
    "Cat": "inactive"
  },
  {
    "Compound": "Cc1nnc(C[C@@H]2C=C(c3ccc(Cl)cc3)c3ccccc3-n3c(C)nnc32)o1",
    "Cat": "active"
  },
  {
    "Compound": "COCC(c1ccc(C(F)(F)F)cc1)N1CCN(C2(C)CCN(C(=O)c3c(C)ncnc3C)CC2)CC1C (stereo not given)",
    "Cat": "inactive"
  }
]
